Data origin: the supplement of paper PMC10127200

tested on: OVCAR4; experiment: Euclidean distance of Cell Painting phenotypic profile (signed KS, 77 features) to DMSO centroid (dimensionless distance); 5 or 10 uM (library dependent); higher = stronger phenotypic change vs DMSO (phenoactivity); conditions: 48 h
Structures can show the parent of a compound that is named as a salt.
Value Type: Euclidean distance

Solved cases (3 shown):
Nc1nc(OCc2ccccc2)c2nc[nH]c2n1; 0.833
Nc1ccn([C@@H]2O[C@H](CO)[C@@H](O)[C@@H]2O)c(=O)n1 [Cytarabine hydrochloride]; 3.43
O=C(O)[C@H](O)Cc1ccc(O)c(O)c1; 1.65

Exercise: Provide value of Euclidean distance for this record tested with OVCAR4: CN(C)Cc1ccc(-c2nc3cccc4c3n2CCNC4=O)cc1
Key: 1.41

Exercise: Provide value of Euclidean distance for this record tested with OVCAR4: CO[C@H]1C[C@@H]2CC[C@@H](C)[C@@](O)(O2)C(=O)C(=O)N2CCCC[C@H]2C(=O)O[C@H]([C@H](C)C[C@@H]2CC[C@@H](OP(C)(C)=O)[C@H](OC)C2)CC(=O)[C@H](C)/C=C(\C)[C@@H](O)[C@@H](OC)C(=O)[C@H](C)C[C@H](C)/C=C/C=C/C=C/1C [Deforolimus]
Key: 2.14

Exercise: Provide value of Euclidean distance for this record tested with OVCAR4: O=C(/C=C/c1ccc(O)c(O)c1)c1ccc(O)cc1O
Key: 1.12

Exercise: Provide value of Euclidean distance for this record tested with OVCAR4: N[C@@H]1CCCCN(c2c(F)cc3c(=O)c(C(=O)O)cn(C4CC4)c3c2Cl)C1 [Besifloxacin HCl]
Key: 0.585
